Test system: HT-29
Assay: WST-1 cytotoxicity, HT-29
Assay type: cell-based, human
Conditions: HT-29, 48 h
Overview of reported pIC50 across a group of compounds:
On this scale, pIC50 is minus log10 of a concentration expressed in M (mol/L).

Worked examples follow.
| compound | pIC50 |
| --- | --- |
| NS(=O)(=O)c1ccc(CCN=Cc2ccccc2O)cc1 | 4.00 |
| NS(=O)(=O)c1ccc(CCN=Cc2cc(Cl)cc(Cl)c2O)cc1 | 3.59 |
| NS(=O)(=O)c1ccc(CCNCc2cc(Cl)ccc2O)cc1 | 4.20 |
| NS(=O)(=O)c1ccc(CCNCc2cc(Cl)cc(Cl)c2O)cc1 | 3.70 |
| NS(=O)(=O)c1ccc(CCNCc2ccccc2O)cc1 | 3.35 |

Request - read-out pIC50 | tested on HT-29 | compound "NS(=O)(=O)c1ccc(CCN=Cc2cc(Cl)ccc2O)cc1"
4.28

// map N.N.[Cl][Pt][Cl] [Cisplatin, reference compound] to recorded pIC50 (system: HT-29)
4.70

---

System: HEK-293
Assay: WST-1 cytotoxicity, HEK-293 normal cells
Type: cell-based, human
Settings: HEK-293 normal cell, 24 h
measurement_name: pIC50
Quick note: pIC50 means taking -log10 of the concentration in moles per liter.

| compound | obs_value |
| --- | --- |
| NS(=O)(=O)c1ccc(CCNCc2cc(Cl)cc(Cl)c2O)cc1 | 3.64 |
| NS(=O)(=O)c1ccc(CCNCc2ccccc2O)cc1 | 3.75 |
| N.N.[Cl][Pt][Cl] [Cisplatin, reference compound] | 4.53 |
| NS(=O)(=O)c1ccc(CCN=Cc2cc(Cl)ccc2O)cc1 | 3.98 |

I would be grateful if you could share the reported pIC50 for "NS(=O)(=O)c1ccc(CCN=Cc2cc(Cl)cc(Cl)c2O)cc1" .
3.92

So what's the measured pIC50 for this one? "NS(=O)(=O)c1ccc(CCNCc2cc(Cl)ccc2O)cc1"
3.49

What value of measured pIC50 is listed for "NS(=O)(=O)c1ccc(CCN=Cc2ccccc2O)cc1" ?
4.01

---

Readings of IC50 for the listed molecules
Test system: PNT-1A
Assay: WST-1 cytotoxicity, PNT-1A normal cells
Assay type: cell-based, human
Details: PNT-1A normal cell, 24 h
Numbers only here, please. The scale is µM.

Worked examples follow.
| molecule | measurement_name | unit_spec | obs_value |
| --- | --- | --- | --- |
| NS(=O)(=O)c1ccc(CCNCc2cc(Cl)ccc2O)cc1 | IC50 | µM | 593 |
| NS(=O)(=O)c1ccc(CCN=Cc2cc(Cl)cc(Cl)c2O)cc1 | IC50 | µM | 167 |
| NS(=O)(=O)c1ccc(CCNCc2cc(Cl)cc(Cl)c2O)cc1 | IC50 | µM | 55.4 |

Which IC50 is listed for "NS(=O)(=O)c1ccc(CCN=Cc2ccccc2O)cc1" ?
45.4

Returns the measured IC50 for the input molecule. Input: N.N.[Cl][Pt][Cl] [Cisplatin, reference compound]
13.4

# lookup: IC50 of "NS(=O)(=O)c1ccc(CCNCc2ccccc2O)cc1"
100

Please give the measured IC50 for this molecule: "NS(=O)(=O)c1ccc(CCN=Cc2cc(Cl)ccc2O)cc1"
389
